Target: Mucosa-associated lymphoid tissue lymphoma translocation protein 1 (Homo sapiens, UniProt Q9UDY8)
Sequence (Q9UDY8 whole entry): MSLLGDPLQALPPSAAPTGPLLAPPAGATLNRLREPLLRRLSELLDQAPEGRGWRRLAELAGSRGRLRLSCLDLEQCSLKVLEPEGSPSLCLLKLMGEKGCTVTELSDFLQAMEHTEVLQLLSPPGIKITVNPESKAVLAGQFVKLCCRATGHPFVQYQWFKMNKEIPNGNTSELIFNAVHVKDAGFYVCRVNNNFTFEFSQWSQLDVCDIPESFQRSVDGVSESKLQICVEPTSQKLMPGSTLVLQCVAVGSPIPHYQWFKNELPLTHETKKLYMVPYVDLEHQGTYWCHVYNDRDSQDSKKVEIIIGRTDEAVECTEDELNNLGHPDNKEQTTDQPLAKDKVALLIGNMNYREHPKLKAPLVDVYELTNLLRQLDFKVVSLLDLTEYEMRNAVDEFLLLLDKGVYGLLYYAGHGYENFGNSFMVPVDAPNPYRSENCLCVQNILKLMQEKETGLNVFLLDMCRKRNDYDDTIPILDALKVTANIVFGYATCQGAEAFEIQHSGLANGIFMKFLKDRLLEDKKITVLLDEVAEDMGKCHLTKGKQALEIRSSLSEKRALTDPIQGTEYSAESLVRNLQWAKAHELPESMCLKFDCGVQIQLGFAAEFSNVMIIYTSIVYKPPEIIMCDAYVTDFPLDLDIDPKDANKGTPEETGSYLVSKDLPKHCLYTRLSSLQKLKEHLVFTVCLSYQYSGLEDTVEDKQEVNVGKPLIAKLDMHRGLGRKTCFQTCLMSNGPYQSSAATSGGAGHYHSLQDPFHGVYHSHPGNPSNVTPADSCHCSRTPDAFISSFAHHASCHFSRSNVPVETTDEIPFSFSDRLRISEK
ENDPOINT: pIC50
Reminder that pIC50 means the negative base-10 logarithm of the concentration expressed in mol/L.

Quickly give me recorded pIC50 for O=C(Nc1cnc(-n2nccn2)c(C(F)(F)F)c1)c1cnn(-c2ncc3c4c(cccc24)C(=O)N3)c1C(F)(F)F [US20250059196, Example 87]
7.08

Please list pIC50 recorded for the compound O=C(Nc1cnc(-n2ccnn2)c(C(F)(F)F)c1)c1cnn(-c2ccc3c4c(cccc24)C(=O)N3)c1C(F)(F)F [US20250059196, Example 36]
7.28

Consider the compound O=C(Nc1cnc(-c2ncco2)c(C(F)(F)F)c1)c1cnn(-c2ccc3c4c(cccc24)C(=O)N3)c1C(F)(F)F [US20250059196, Example 34] and give its recorded pIC50.
7.49

Please indicate pIC50 recorded for CS(C)(=O)=Nc1ncc(NC(=O)c2cnn(-c3ccc4c5c(cccc35)C(=O)N4)c2C(F)(F)F)cc1C(F)(F)F [US20250059196, Example 30]
6.85

In one line, give reported pIC50 of the entry Cc1nc(-c2ncc(NC(=O)c3cnn(-c4ccc5c6c(cccc46)C(=O)N5)c3C(F)(F)F)cc2C(F)(F)F)oc1C [US20250059196, Example 35] .
7.23

Query pIC50 for N#Cc1ccnn1-c1ncc(NC(=O)c2cnn(-c3ccc4c5c(cccc35)C(=O)N4)c2C(F)(F)F)cc1C(F)(F)F [US20250059196, Example 32]
6.91

* * *

Target sequence: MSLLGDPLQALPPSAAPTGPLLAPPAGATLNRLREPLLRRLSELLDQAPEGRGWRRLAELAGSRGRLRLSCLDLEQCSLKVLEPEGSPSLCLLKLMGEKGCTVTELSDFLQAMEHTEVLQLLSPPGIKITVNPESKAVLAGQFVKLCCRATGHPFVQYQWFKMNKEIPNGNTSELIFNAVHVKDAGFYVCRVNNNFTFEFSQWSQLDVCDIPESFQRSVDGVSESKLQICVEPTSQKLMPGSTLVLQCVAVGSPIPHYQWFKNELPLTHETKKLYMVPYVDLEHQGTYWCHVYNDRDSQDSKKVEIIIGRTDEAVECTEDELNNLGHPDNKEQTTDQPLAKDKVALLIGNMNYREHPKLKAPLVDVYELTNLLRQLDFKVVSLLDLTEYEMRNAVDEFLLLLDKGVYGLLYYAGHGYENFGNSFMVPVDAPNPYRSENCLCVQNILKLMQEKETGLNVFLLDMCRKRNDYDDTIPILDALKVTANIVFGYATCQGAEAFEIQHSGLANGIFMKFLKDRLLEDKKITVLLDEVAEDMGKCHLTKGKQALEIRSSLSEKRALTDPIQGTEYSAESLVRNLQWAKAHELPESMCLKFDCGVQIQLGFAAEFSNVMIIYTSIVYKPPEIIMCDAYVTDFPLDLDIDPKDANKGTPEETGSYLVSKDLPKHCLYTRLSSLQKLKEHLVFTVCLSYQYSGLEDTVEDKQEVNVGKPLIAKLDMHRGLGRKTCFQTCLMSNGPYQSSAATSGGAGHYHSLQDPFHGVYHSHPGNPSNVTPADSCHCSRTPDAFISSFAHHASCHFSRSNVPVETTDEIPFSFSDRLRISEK
# IC50 values compiled below
Output spec: scalar in nM, unitless text.

Consider the following illustrative entries.
O=C(Nc1ccc(-n2nccn2)c(C(F)(F)F)c1)c1cnn(-c2cnc3c4c(cccc24)C(=O)N3)c1C(F)(F)F | 191
O=C(Nc1ccc(-n2cccn2)c(C(F)(F)F)c1)c1cnn(-c2ccc3c4c(cccc24)C(=O)N3)c1C(F)(F)F | 47
O=C(Nc1ccc(C(=O)N2CCCC2)c(C(F)(F)F)c1)c1cnn(-c2ccc3c4c(cccc24)C(=O)N3)c1C(F)(F)F | 104

Identify the reported IC50 for the following entry. `O=C(Nc1ccc(-n2nccn2)c(Cl)c1)c1cnn(-c2cnc3c4c(cccc24)C(=O)N3)c1C(F)(F)F`
24

Assign IC50 to the following record: `O=C(Nc1cnc(-c2nccs2)c(C(F)(F)F)c1)c1cnn(-c2ccc3c4c(cccc24)C(=O)N3)c1C(F)(F)F`
46

Determine its reported IC50: `CCc1cc(-n2ncc(C(=O)Nc3ccnc(C(F)(F)F)c3)c2C(F)(F)F)c2cccc3c2c1NC3=O`
106
